Values from ChEMBL document CHEMBL2177081

Would you mind telling me the reported Cmax of each entry?
- System: Rattus norvegicus
- test: Cmax in rat at 2 mg/kg, iv
- Assay type: ADME, organism-based
- Set-up: dose 2 mg/kg, route intravenous
- runConditions: in vivo
Numeric answer only, unit µM assumed.

The compound listed as `O=C([O-])c1cc(-c2cccc(COc3ccc4c(c3)CN(C3CCCC3)C4=O)c2)ccc1Cl.[Na+]` has a reported Cmax of 28.2

The compound listed as `O=C([O-])c1cc(-c2cccc(COc3ccc4c(c3)CN(C3CCCC3)C4=O)c2)ccc1O.[Na+]` has a reported Cmax of 3.9

The compound listed as `COc1ccc(C(=O)[O-])cc1-c1cccc(COc2ccc3c(c2)CN(C2CCCC2)C3=O)c1.[Na+]` has a reported Cmax of 5.6

====

Would you mind telling me the reported concentration of each entry?
- System: Brain
- test: Drug level in rat brain at 10 mg/kg, po
- Assay type: ADME, organism-based
- Design: dose 10 mg/kg, route oral
- runConditions: in vivo, read-out: Drug uptake
Numeric answer only, unit µM assumed.

The molecule listed as `O=C([O-])c1cc(-c2cccc(COc3ccc4c(=O)n(C5CC5)sc4c3)c2)ccc1Cl.[Na+]` has a reported concentration of 0.03

The molecule listed as `O=C([O-])c1cc(-c2cccc(COc3ccc4c(c3)CN(C3CCCC3)C4=O)c2)ccc1O.[Na+]` has a reported concentration of 0.0071

The molecule listed as `COc1ccc(C(=O)[O-])cc1-c1cccc(COc2ccc3c(c2)CN(C2CCCC2)C3=O)c1.[Na+]` has a reported concentration of 0.18

====

- System: Rattus norvegicus
- test: AUC (0 to t) in rat at 2 mg/kg, iv
- Assay type: ADME, organism-based, Plasma
- Design: dose 2 mg/kg, route intravenous
- runConditions: in vivo
Would you mind telling me the reported AUCt of each entry?
Numeric answer only, unit µM·h assumed.

The compound listed as `O=C([O-])c1cc(-c2cccc(COc3ccc4c(c3)CN(C3CCCC3)C4=O)c2)ccc1Cl.[Na+]` has a reported AUCt of 11.8

The compound listed as `O=C([O-])c1cc(-c2cccc(COc3ccc4c(c3)CN(C3CCCC3)C4=O)c2)ccc1O.[Na+]` has a reported AUCt of 2.57

The compound listed as `COc1ccc(C(=O)[O-])cc1-c1cccc(COc2ccc3c(c2)CN(C2CCCC2)C3=O)c1.[Na+]` has a reported AUCt of 6.7

====

Would you mind telling me the reported concentration of each entry?
- Tested on: Plasma
- test: Plasma concentration in rat at 10 mg/kg, po
- Type: ADME, organism-based
- Parameters: dose 10 mg/kg, route oral
- runConditions: in vivo
Numeric answer only, unit nM assumed.

The compound listed as `O=C([O-])c1cc(-c2cccc(COc3ccc4c(=O)n(C5CC5)sc4c3)c2)ccc1Cl.[Na+]` has a reported concentration of 800

The compound listed as `O=C([O-])c1cc(-c2cccc(COc3ccc4c(c3)CN(C3CCCC3)C4=O)c2)ccc1O.[Na+]` has a reported concentration of 210

The compound listed as `COc1ccc(C(=O)[O-])cc1-c1cccc(COc2ccc3c(c2)CN(C2CCCC2)C3=O)c1.[Na+]` has a reported concentration of 1460

====

- System: Rattus norvegicus
- test: Cmax in rat at 10 mg/kg, ip
- Assay type: ADME, organism-based
- Set-up: dose 10 mg/kg, route intraperitoneal
- runConditions: in vivo
valueType: Cmax
Please state the number and follow it with the unit.

The compound listed as `O=C([O-])c1cc(-c2cccc(-c3ccc4c(c3)CN(C3CCCC3)C4=O)c2)ccc1Cl.[Na+]` has a reported Cmax of 2000 nM

====

- System: Rattus norvegicus
- test: AUC (0 to t) in rat at 10 mg/kg, ip
- Type: ADME, organism-based, Plasma
- Design: dose 10 mg/kg, route intraperitoneal
- runConditions: in vivo
valueType: AUCt (µM·h)
Numeric answer only, unit µM·h assumed.

Tested on Rattus norvegicus, the item `O=C([O-])c1cc(-c2cccc(COc3ccc4c(=O)n(C5CC5)sc4c3)c2)ccc1Cl.[Na+]` showed AUCt equal to 25.8

Tested on Rattus norvegicus, the item `O=C([O-])c1cc(-c2cccc(-c3ccc4c(c3)CN(C3CCCC3)C4=O)c2)ccc1Cl.[Na+]` showed AUCt equal to 3.23

====

- System: Rattus norvegicus
- test: AUC (0 to t) in rat at 10 mg/kg, po
- Assay type: ADME, organism-based, Plasma
- Design: dose 10 mg/kg, route oral
- runConditions: in vivo
valueType: AUCt
Please state the number and follow it with the unit.

Tested on Rattus norvegicus, the item `O=C([O-])c1cc(-c2cccc(COc3ccc4c(c3)CN(C3CCCC3)C4=O)c2)ccc1O.[Na+]` showed AUCt equal to 7.1 µM·h

Tested on Rattus norvegicus, the item `O=C([O-])c1cc(-c2cccc(COc3ccc4c(=O)n(C5CC5)sc4c3)c2)ccc1Cl.[Na+]` showed AUCt equal to 61.5 µM·h

Tested on Rattus norvegicus, the item `O=C([O-])c1cc(-c2cccc(COc3ccc4c(c3)CN(C3CCCC3)C4=O)c2)ccc1Cl.[Na+]` showed AUCt equal to 42.5 µM·h

Tested on Rattus norvegicus, the item `O=C([O-])c1cc(-c2cccc(-c3ccc4c(c3)CN(C3CCCC3)C4=O)c2)ccc1Cl.[Na+]` showed AUCt equal to 2.67 µM·h

Tested on Rattus norvegicus, the item `COc1ccc(C(=O)[O-])cc1-c1cccc(COc2ccc3c(c2)CN(C2CCCC2)C3=O)c1.[Na+]` showed AUCt equal to 12 µM·h

====

- Tested on: Rattus norvegicus
- test: Volume of distribution in rat at 10 mg/kg, po
- Assay type: ADME, organism-based
- Design: dose 10 mg/kg, route oral
- runConditions: in vivo
Would you mind telling me the reported Vd of each entry?
Numeric answer only, unit mL assumed.

The molecule listed as `O=C([O-])c1cc(-c2cccc(-c3ccc4c(c3)CN(C3CCCC3)C4=O)c2)ccc1Cl.[Na+]` has a reported Vd of 96.2

The molecule listed as `O=C([O-])c1cc(-c2cccc(COc3ccc4c(=O)n(C5CC5)sc4c3)c2)ccc1Cl.[Na+]` has a reported Vd of 4.1

The molecule listed as `O=C([O-])c1cc(-c2cccc(COc3ccc4c(c3)CN(C3CCCC3)C4=O)c2)ccc1O.[Na+]` has a reported Vd of 28

The molecule listed as `COc1ccc(C(=O)[O-])cc1-c1cccc(COc2ccc3c(c2)CN(C2CCCC2)C3=O)c1.[Na+]` has a reported Vd of 10875.2

The molecule listed as `O=C([O-])c1cc(-c2cccc(COc3ccc4c(c3)CN(C3CCCC3)C4=O)c2)ccc1Cl.[Na+]` has a reported Vd of 3

====

- System: Rattus norvegicus
- test: Cmax in rat at 10 mg/kg, po
- Assay type: ADME, organism-based
- Set-up: dose 10 mg/kg, route oral
- runConditions: in vivo
Field: label. Allowed values: true (1) (Cmax < 2000 nM) or false (0) (Cmax >= 2000 nM).

Problem: Does this molecule meet the criterion Cmax < 2000 nM? `O=C([O-])c1cc(-c2cccc(COc3ccc4c(c3)CN(C3CCCC3)C4=O)c2)ccc1O.[Na+]`
Result: true (1)

Problem: Does this molecule meet the criterion Cmax < 2000 nM? `O=C([O-])c1cc(-c2cccc(-c3ccc4c(c3)CN(C3CCCC3)C4=O)c2)ccc1Cl.[Na+]`
Result: true (1)

Problem: Does this molecule meet the criterion Cmax < 2000 nM? `O=C([O-])c1cc(-c2cccc(COc3ccc4c(c3)CN(C3CCCC3)C4=O)c2)ccc1Cl.[Na+]`
Result: false (0)

Problem: Does this molecule meet the criterion Cmax < 2000 nM? `COc1ccc(C(=O)[O-])cc1-c1cccc(COc2ccc3c(c2)CN(C2CCCC2)C3=O)c1.[Na+]`
Result: false (0)

Problem: Does this molecule meet the criterion Cmax < 2000 nM? `O=C([O-])c1cc(-c2cccc(COc3ccc4c(=O)n(C5CC5)sc4c3)c2)ccc1Cl.[Na+]`
Result: false (0)

====

- System: Rattus norvegicus
- test: Ratio of drug level in brain to plasma in rat at 10 mg/kg, po
Would you mind telling me the reported BPR of each entry?

Tested on Rattus norvegicus, the item `O=C([O-])c1cc(-c2cccc(COc3ccc4c(=O)n(C5CC5)sc4c3)c2)ccc1Cl.[Na+]` showed BPR equal to 0.04

Tested on Rattus norvegicus, the item `O=C([O-])c1cc(-c2cccc(COc3ccc4c(c3)CN(C3CCCC3)C4=O)c2)ccc1O.[Na+]` showed BPR equal to 0.0335

Tested on Rattus norvegicus, the item `O=C([O-])c1cc(-c2cccc(COc3ccc4c(c3)CN(C3CCCC3)C4=O)c2)ccc1Cl.[Na+]` showed BPR equal to 0.039

Tested on Rattus norvegicus, the item `COc1ccc(C(=O)[O-])cc1-c1cccc(COc2ccc3c(c2)CN(C2CCCC2)C3=O)c1.[Na+]` showed BPR equal to 0.13
